Listed below are compounds with Ki for Tyrosine-protein kinase JAK2 (Homo sapiens, UniProt O60674), each taken from published literature.

Missing value: Ki, Tyrosine-protein kinase JAK2 (Homo sapiens, UniProt O60674), entry O=C(O)C1Nc2ccccc2-c2ccnc3[nH]cc1c23 (centres unmarked) . Fill in?
250 to 2500 nM

Missing value: Ki, Tyrosine-protein kinase JAK2 (Homo sapiens, UniProt O60674), entry N#Cc1cccc(F)c1-c1cc(-n2ccc(N3CC[C@]4(C3)OC[C@@H](O)CO4)n2)c2c(n1)CNC2=O . Fill in?
10 to 100 nM

Missing value: Ki, Tyrosine-protein kinase JAK2 (Homo sapiens, UniProt O60674), entry O=C(Nc1nc(-c2ncnc3[nH]ccc23)cs1)C1CCC1 . Fill in?
< 100 nM

Missing value: Ki, Tyrosine-protein kinase JAK2 (Homo sapiens, UniProt O60674), entry N#Cc1cccc(F)c1-c1cc(-n2ccc(N3CC[C@@H](O)[C@@H](N4CCOCC4)C3)n2)c2c(n1)CNC2=O . Fill in?
10 to 100 nM

Missing value: Ki, Tyrosine-protein kinase JAK2 (Homo sapiens, UniProt O60674), entry CCC(CC)NC(=O)c1cc(-c2ncnc3[nH]ccc23)c[nH]1 . Fill in?
< 100 nM

Continuing:
Missing value: Ki, Tyrosine-protein kinase JAK2 (Homo sapiens, UniProt O60674), entry Fc1cc(C2Nc3ccccc3-c3ccnc4[nH]cc2c34)ccc1Cl (centres unmarked) . Fill in?
< 250 nM

Missing value: Ki, Tyrosine-protein kinase JAK2 (Homo sapiens, UniProt O60674), entry Cc1cc(O)ccc1C1Nc2ccccc2-c2ccnc3[nH]cc1c23 (centres unmarked) . Fill in?
< 250 nM

Missing value: Ki, Tyrosine-protein kinase JAK2 (Homo sapiens, UniProt O60674), entry CCOC(=O)c1cc(N[C@@H](C)C(=O)NCC(F)(F)F)nc(-c2c[nH]c3ncncc23)n1 . Fill in?
> 5000 nM

Missing value: Ki, Tyrosine-protein kinase JAK2 (Homo sapiens, UniProt O60674), entry CC[C@](C)(Nc1nc(-c2c[nH]c3ncncc23)ncc1F)C(=O)NCC(F)(F)F . Fill in?
500 to 5000 nM
